Every entry's value here was drawn from paper PMC10391911.

# EXPERIMENT SUMMARY: in vivo
# PARTICULARS: male, C57BL/6J, mouse, iv, 1 mg/kg, AUClast
QUANTITY NAME: AUC(0-t) (ng·h/mL)
Hi! Could you send only the number? It should be in ng·h/mL, unit omitted.

**Query** Tell us which AUC(0-t) value is on record for O=C(Nc1c(Cl)cncc1Cl)c1ccc(OC(F)F)c(OCC2CC2)c1 [roflumilast]
**Result** 4890

**Query** Fill in reported AUC(0-t) for this entry: O=C(O)Cc1ccc(Cc2cc(-c3cccc(Cl)c3)nc(C(F)(F)F)c2)cc1 [zatolmilast]
**Result** 81900
